Kindly state Kd for each of the entries shown.
- measurement-target: T1, pig TF-His (pig (Sus scrofa))
- T1 construct: also called pig TF ECD-His; pTF
- T1 chain: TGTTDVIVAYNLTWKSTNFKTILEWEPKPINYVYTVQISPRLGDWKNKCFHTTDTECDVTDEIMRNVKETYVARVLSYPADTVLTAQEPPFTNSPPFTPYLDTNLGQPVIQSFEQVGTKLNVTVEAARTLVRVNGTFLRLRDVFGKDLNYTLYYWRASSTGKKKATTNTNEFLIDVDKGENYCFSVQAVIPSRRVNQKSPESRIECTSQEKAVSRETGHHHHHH
- procedure-details: SPR (Biacore), antibody captured by anti-human IgG on CM5 chip, pig TF-His in solution, 1:1 model
Answers are plain numbers, in nM.

The following binders have reported results that may help.
Problem: Please report the recorded Kd for 25A5 (antibody, human IgG1, kappa, V domains shown, Human IgG1; also called antibody 25A5) VH: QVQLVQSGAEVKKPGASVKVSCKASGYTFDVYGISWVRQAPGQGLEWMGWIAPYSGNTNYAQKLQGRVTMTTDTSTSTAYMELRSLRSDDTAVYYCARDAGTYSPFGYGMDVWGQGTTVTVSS VL: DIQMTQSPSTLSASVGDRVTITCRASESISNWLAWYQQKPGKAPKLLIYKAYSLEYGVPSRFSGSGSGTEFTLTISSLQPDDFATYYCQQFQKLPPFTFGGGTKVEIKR .
Result: 5.2

Problem: Also, 25A (antibody, human IgG1, V domains shown, Human IgG1; also called antibody 25A) VH: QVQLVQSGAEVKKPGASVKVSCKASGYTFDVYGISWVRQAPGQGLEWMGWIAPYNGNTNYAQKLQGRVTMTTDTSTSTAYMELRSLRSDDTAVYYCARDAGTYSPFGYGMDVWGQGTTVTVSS VL: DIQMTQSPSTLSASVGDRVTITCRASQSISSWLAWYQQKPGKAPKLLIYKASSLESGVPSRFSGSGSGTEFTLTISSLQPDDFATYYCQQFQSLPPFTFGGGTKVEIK please.
Result: 18.7

Problem: Follow-up entry: 25A3 (antibody, human IgG1, kappa, V domains shown, Human IgG1; also called antibody 25A3) VH: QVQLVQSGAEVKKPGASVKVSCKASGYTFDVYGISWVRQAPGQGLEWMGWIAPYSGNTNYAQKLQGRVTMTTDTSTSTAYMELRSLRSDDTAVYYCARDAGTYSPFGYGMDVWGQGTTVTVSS VL: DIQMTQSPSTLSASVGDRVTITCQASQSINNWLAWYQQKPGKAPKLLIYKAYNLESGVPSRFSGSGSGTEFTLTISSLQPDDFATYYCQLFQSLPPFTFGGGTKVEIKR
Result: 5.5

Hi team, please reply with Kd for each item in this list.
1. 25G9 (antibody, human IgG1, kappa, V domains shown, Human IgG1; also called antibody 25G9) VH: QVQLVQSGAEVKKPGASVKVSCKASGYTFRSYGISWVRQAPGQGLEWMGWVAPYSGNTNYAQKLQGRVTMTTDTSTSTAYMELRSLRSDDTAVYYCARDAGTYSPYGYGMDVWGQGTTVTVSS VL: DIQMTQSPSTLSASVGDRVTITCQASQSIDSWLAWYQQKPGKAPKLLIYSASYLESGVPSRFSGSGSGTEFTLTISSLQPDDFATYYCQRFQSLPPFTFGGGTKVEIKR
2. 25G (antibody, human IgG1, kappa, V domains shown, Human IgG1; also called antibody 25G) VH: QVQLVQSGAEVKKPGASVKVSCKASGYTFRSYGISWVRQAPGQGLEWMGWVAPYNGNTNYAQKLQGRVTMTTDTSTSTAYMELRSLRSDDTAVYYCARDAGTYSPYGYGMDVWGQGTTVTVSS VL: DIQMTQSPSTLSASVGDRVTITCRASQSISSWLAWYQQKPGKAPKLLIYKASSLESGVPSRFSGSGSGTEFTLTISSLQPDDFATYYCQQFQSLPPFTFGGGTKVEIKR

Result:
[3.3, 26]

Data origin: patent US20240166765A1
